The following binders are shown together with reported pEC50 values.
# system.tested: T1, DcR3 (UniProt O95407 30-300, limits assumed)
# T1 construct: the construct is not described; also called decoy receptor DcR3; TNFRSF6B
# T1 sequence (looked up): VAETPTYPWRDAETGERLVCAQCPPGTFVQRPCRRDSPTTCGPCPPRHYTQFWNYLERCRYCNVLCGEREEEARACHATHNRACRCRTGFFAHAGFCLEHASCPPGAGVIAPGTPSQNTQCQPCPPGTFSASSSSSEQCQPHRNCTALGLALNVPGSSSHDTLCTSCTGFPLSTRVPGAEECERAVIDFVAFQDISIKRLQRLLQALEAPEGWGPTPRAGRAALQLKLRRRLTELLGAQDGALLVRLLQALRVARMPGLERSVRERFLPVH
# assay.summary: ELISA, DcR3
By convention, pEC50 is the negative base-10 log of a molar concentration.

Worked cases, answers included:
>>> quantitative_result("TL1W33 (E241L) (ligand, no entry of the listing holds E241L; also called E241L variant of His-TL1A) HHHHHHENLYFQGLKGQEFAPSHQQVYAPLRADGDKPRAHLTVVRQTPTQHFKNQFPALHWEHELGLAFTKNRMNYTNKFLLIPESGDYFIYSQVTFRGMTSECSEIRQAGRPNKPDSITVVITKVTDSYPEPTQLLMGTKSVCEVGSNWFQPIYLGAMFSLQEGDKLMVNVSDISLVDYTKLDKTFFGAFLL")
8.24
>>> quantitative_result("TL1W94 (His-TEV-TL1A M158E) (ligand, also called TL1W94 (M158E)) HHHHHHENLYFQGLKGQEFAPSHQQVYAPLRADGDKPRAHLTVVRQTPTQHFKNQFPALHWEHELGLAFTKNRMNYTNKFLLIPESGDYFIYSQVTFRGETSECSEIRQAGRPNKPDSITVVITKVTDSYPEPTQLLMGTKSVCEVGSNWFQPIYLGAMFSLQEGDKLMVNVSDISLVDYTKEDKTFFGAFLL")
7.73
>>> quantitative_result("TL1W110 (His-TEV-TL1A S187K) (ligand, also called TL1W110 (S187K)) HHHHHHENLYFQGLKGQEFAPSHQQVYAPLRADGDKPRAHLTVVRQTPTQHFKNQFPALHWEHELGLAFTKNRMNYTNKFLLIPESGDYFIYSQVTFRGMTSECSEIRQAGRPNKPDSITVVITKVTDKYPEPTQLLMGTKSVCEVGSNWFQPIYLGAMFSLQEGDKLMVNVSDISLVDYTKEDKTFFGAFLL")
7.80
>>> quantitative_result("TL1W79 (His-TEV-TL1A R103E) (ligand, also called TL1W79 (R103E)) HHHHHHENLYFQGLKGQEFAPSHQQVYAPLRADGDKPRAHLTVVEQTPTQHFKNQFPALHWEHELGLAFTKNRMNYTNKFLLIPESGDYFIYSQVTFRGMTSECSEIRQAGRPNKPDSITVVITKVTDSYPEPTQLLMGTKSVCEVGSNWFQPIYLGAMFSLQEGDKLMVNVSDISLVDYTKEDKTFFGAFLL")
8.15

Sample TL1W88 (His-TEV-TL1A R156A) (ligand, also called TL1W88 (R156A)) HHHHHHENLYFQGLKGQEFAPSHQQVYAPLRADGDKPRAHLTVVRQTPTQHFKNQFPALHWEHELGLAFTKNRMNYTNKFLLIPESGDYFIYSQVTFAGMTSECSEIRQAGRPNKPDSITVVITKVTDSYPEPTQLLMGTKSVCEVGSNWFQPIYLGAMFSLQEGDKLMVNVSDISLVDYTKEDKTFFGAFLL ; pEC50 observed: 7.87

In plain terms, TL1W109 (His-TEV-TL1A S187L) (ligand, also called TL1W109 (S187L)) HHHHHHENLYFQGLKGQEFAPSHQQVYAPLRADGDKPRAHLTVVRQTPTQHFKNQFPALHWEHELGLAFTKNRMNYTNKFLLIPESGDYFIYSQVTFRGMTSECSEIRQAGRPNKPDSITVVITKVTDLYPEPTQLLMGTKSVCEVGSNWFQPIYLGAMFSLQEGDKLMVNVSDISLVDYTKEDKTFFGAFLL has a documented pEC50 of 7.81

Item: TL1W83 (His-TEV-TL1A E120K) (ligand, also called TL1W83 (E120K)) HHHHHHENLYFQGLKGQEFAPSHQQVYAPLRADGDKPRAHLTVVRQTPTQHFKNQFPALHWKHELGLAFTKNRMNYTNKFLLIPESGDYFIYSQVTFRGMTSECSEIRQAGRPNKPDSITVVITKVTDSYPEPTQLLMGTKSVCEVGSNWFQPIYLGAMFSLQEGDKLMVNVSDISLVDYTKEDKTFFGAFLL | pEC50: 8.66

Reported pEC50 ( TL1W93 (His-TEV-TL1A M158K) (ligand, also called TL1W93 (M158K)) HHHHHHENLYFQGLKGQEFAPSHQQVYAPLRADGDKPRAHLTVVRQTPTQHFKNQFPALHWEHELGLAFTKNRMNYTNKFLLIPESGDYFIYSQVTFRGKTSECSEIRQAGRPNKPDSITVVITKVTDSYPEPTQLLMGTKSVCEVGSNWFQPIYLGAMFSLQEGDKLMVNVSDISLVDYTKEDKTFFGAFLL ) = 7.25

Quick note, pEC50 for TL1W82 (His-TEV-TL1A K111E) (ligand, also called TL1W82 (K111E)) HHHHHHENLYFQGLKGQEFAPSHQQVYAPLRADGDKPRAHLTVVRQTPTQHFENQFPALHWEHELGLAFTKNRMNYTNKFLLIPESGDYFIYSQVTFRGMTSECSEIRQAGRPNKPDSITVVITKVTDSYPEPTQLLMGTKSVCEVGSNWFQPIYLGAMFSLQEGDKLMVNVSDISLVDYTKEDKTFFGAFLL landed at 7.97

// TL1W86 (His-TEV-TL1A G124K) (ligand, also called TL1W86 (G124K)) HHHHHHENLYFQGLKGQEFAPSHQQVYAPLRADGDKPRAHLTVVRQTPTQHFKNQFPALHWEHELKLAFTKNRMNYTNKFLLIPESGDYFIYSQVTFRGMTSECSEIRQAGRPNKPDSITVVITKVTDSYPEPTQLLMGTKSVCEVGSNWFQPIYLGAMFSLQEGDKLMVNVSDISLVDYTKEDKTFFGAFLL : pEC50 value = 8.54

For TL1W120 (His-TEV-TL1A S206K) (ligand, also called TL1W120 (S206K)) HHHHHHENLYFQGLKGQEFAPSHQQVYAPLRADGDKPRAHLTVVRQTPTQHFKNQFPALHWEHELGLAFTKNRMNYTNKFLLIPESGDYFIYSQVTFRGMTSECSEIRQAGRPNKPDSITVVITKVTDSYPEPTQLLMGTKSVCEVGKNWFQPIYLGAMFSLQEGDKLMVNVSDISLVDYTKEDKTFFGAFLL the binder record lists pEC50 as 7.04
